Every entry's value here was drawn from PubChem BioAssay AID1851.

system.under.test: Cytochrome P450 2C9 (Homo sapiens)
method: Cytochrome panel assay with activity outcomes
conditions: recombinant CYP, pro-luciferin dealkylation, luminescence, p450-cyp2c9; series mostly up to 57.1 µM
Among all 16,000 compounds or so, about 4,000 (25%) were called active. Roughly 26% stayed inconclusive and do not appear here. Calls come from the whole dose curve; as a rule, active = well fitted curve in the direction sought with a large enough effect; inconclusive = small, poorly fitted or top-dose-only effect, or effect the other way; inactive = no such curve, though single readings can be large or run the other way. The list is a sample of the results.
Please state which outcome applies, choosing from active, inactive

Exercise: What call does the record list for c1ccc(-c2ccc(N3CCCC4(CCNCC4)C3)cc2)cc1 ?
Key: active

Exercise: Short answer needed: outcome of this test for N#CC(C#N)=NNc1ccc2cn[nH]c2c1 ?
Key: active

Exercise: Kindly provide the recorded test outcome for the following molecule: Cn1c(=NC(=O)CCl)sc2ccccc21
Key: inactive

Exercise: What was the test verdict on COC(=O)[C@@]1(Cc2ccc(F)cc2)[C@H]2c3cc(C(=O)N4CCCC4)n(CCN4CNCC4=O)c3C[C@H]2CN1C(=O)c1ccccc1 ?
Key: active

Exercise: Any idea what this test logged for CC(C)NC(=O)N1CCCC2(CCN(C(=O)c3cccn3C)CC2)C1 ?
Key: inactive

Exercise: Test call, this molecule: Cc1sc(=NC(=O)c2ccco2)n(C)c1-c1ccc(F)cc1
Key: active

Exercise: Lab log entry: N#Cc1c(N2CCN(C(=O)c3ccccc3Cl)CC2)nc(-c2ccccc2)c2c1CCCC2 — outcome as called in the assay?
Key: active

Exercise: Recorded test outcome, item Cn1cccc1C(=O)N1CCC2(CC1)CCN(c1cccc(-c3ccccc3)c1)CC2
Key: inactive

Exercise: What did this assay record as the result for CCCCCCCCC(=O)NCc1cc(OC)c(O)cc1I ?
Key: inactive

Exercise: Test call for this molecule, please: COc1cc(CNC(=O)CCCC/C=C\C(C)C)ccc1O
Key: active

Exercise: Please state the recorded outcome for this molecule: Cn1cccc1C(=O)N1CCC2(CC1)CCN(C(c1ccccc1)c1ccccc1)CC2
Key: inactive

Exercise: What classification did CCCCCCCC/C=C\CCCCCCCC(=O)NCc1ccc(O)c(OC)c1 end up with in this test?
Key: inactive

Exercise: Record request — test call for CCCCN(C)Cc1c(C)[nH]c2ccc(Cl)cc2c1=O
Key: inactive

Exercise: Test call, this molecule: CN(C)CCNC(=O)Cn1nc(-c2ccc(Cl)cc2)ccc1=O
Key: inactive

Exercise: Test call, this molecule: c1ccc(-c2ccc(N3CC[C@@]4(CCCNC4)C3)cc2)cc1
Key: inactive

Exercise: What call does the record list for CC(C)CN1CCCC2(CCN(C(=O)c3cccn3C)CC2)C1 ?
Key: inactive

Exercise: Please let me know the test result on file for O=C1OCC(c2ccccc2)=C1c1ccc(S(=O)(=O)N2CCOCC2)s1 .
Key: active

Exercise: Status in this test for N=C1SCC(=O)N1c1nc(-c2ccccc2)cs1 ?
Key: inactive

Exercise: Check the results log: what was the call for CN1CCCC2(CCN(C(=O)c3cccn3C)CC2)C1 ?
Key: inactive

Exercise: Give the logged outcome of this assay for the following molecule: Cn1cccc1C(=O)N1CCC2(CCCN(c3cccc(-c4ccccc4)c3)C2)CC1
Key: active

Exercise: GET /call?item= Cn1cccc1C(=O)N1CCC2(CCCN(c3ccc(-c4ccccc4)cc3)C2)CC1 returns the recorded outcome of this test.
Key: active

Exercise: Recorded test outcome, item Cn1c2c(c(=O)n(C)c1=O)CN(CCN1CCNCC1)CN2
Key: inactive

Exercise: Record lookup: outcome of this test for Cc1sc(=NC(=O)c2ccco2)n(C)c1-c1ccccc1 ?
Key: active
